// data source = ChEMBL document CHEMBL3988442

- System: Wolbachia pipientis
- PROCEDURE_TEXT: Anti-Wolbachia Cell-Based Screen
- Assay type: functional
- Set-up: scale not given: in the data most compounds retested in dose-response had high values
- TEST_CONTEXT: 5 µM
Among all 48,000 compounds or so, about 13,000 (27%) showed an effect of 50% or more. Some of the results follow.
Exercise: state measured Percent Effect for each of the molecules provided.
Quick reminder: number only, in %, skip the unit.

Exercise: Query for Wolbachia pipientis: what Percent Effect does the record show for "CN(C)C(=O)N1CCn2nc(CNC(=O)CCc3ccccn3)cc2C1" ?
Solution: 5.444

Exercise: Same for "CC(=O)c1cccc(OCCCC(=O)N(C)Cc2cnn(C)c2)c1"
Solution: -7.913

Exercise: Same for "CN(C)C(=O)N1CCn2nc(CNC(=O)CCC(F)(F)F)cc2C1"
Solution: -4.672

Exercise: Same for "CN1C[C@@H](N)C[C@H]1C(=O)N1CCC(Cc2ccc(F)cc2)CC1"
Solution: 81.94

Exercise: Same for CCC(NC(=O)c1ccc2[nH]ccc2c1)C(=O)N1CCOCC1 (stereo unspecified)
Solution: 6.827

Exercise: Same for CCC(CC)n1nc(C)cc1NC(=O)C1CCCO1 (stereo unspecified)
Solution: 0.9599

Exercise: Same for "CCc1cc(=O)[nH]c2nnc(SCC(=O)OC)n12"
Solution: -19.07

Exercise: Same for "Cc1csc(NC(=O)C2CCN(Cc3cccc4c3OCCO4)CC2)n1"
Solution: 93.8

Exercise: Same for COc1ccc(C)cc1CN1CCCC1Cn1nc(C)nc1C (stereo unspecified)
Solution: 2.525

Exercise: Same for Cc1csc(N(C)C(=O)C(c2c(F)cccc2Cl)N(C)C)n1 (stereo unspecified)
Solution: 1.249

Exercise: Same for CS(=O)(=O)N1CCC2(CCCN(c3ncc(F)cn3)C2)C1 (stereo unspecified)
Solution: 6.577

Exercise: Same for O=S(=O)(C1CC1)N1CCC2(CCCN(c3ncc(F)cn3)C2)C1 (stereo unspecified)
Solution: -1.558

Exercise: Same for Cc1cnc(N2CCCC3(COCCN(c4nccs4)C3)C2)nc1 (stereo unspecified)
Solution: -8.565

Exercise: Same for "O=C(O)C(F)(F)F.O=C(O)C(F)(F)F.c1ccc(OCc2nnc3n2CCN(CC2CCOCC2)C3)nc1"
Solution: 15.11

Exercise: Same for O=C(O)C(F)(F)F.O=C(c1ccno1)N1CCO[C@@H]2CC(COCc3ccccn3)C[C@H]21 (stereo partly specified)
Solution: 99.5

Exercise: Same for "COCCOC(=O)N1CCn2nc(CN(C)Cc3nccs3)cc2C1"
Solution: 91.56

Exercise: Same for CC(C(=O)N1CCC(Cc2ccc(F)cc2)CC1)n1ccnc1 (stereo unspecified)
Solution: -3.796

Exercise: Same for "CN(C)C(=O)N1CCCn2nc(CNC(=O)CCc3ccsc3)cc2C1"
Solution: -5.491

Exercise: Same for "CN(C)Cc1nnc(C2CCN(c3ncccc3Cl)CC2)n1C1CC1"
Solution: -16.88

Exercise: Same for CC(c1ccc(Cl)cc1)N1CCN(CCCS(N)(=O)=O)CC1 (stereo unspecified)
Solution: 8.4

Exercise: Same for "O=C(NCCCNc1ccccc1)c1scnc1Cl"
Solution: 2.651

Exercise: Same for COc1ccc(F)cc1CN1CCCC1Cn1nc(C)nc1C (stereo unspecified)
Solution: 149.5

Exercise: Same for Cc1cnc(N2CCOC3(CCCN(c4ncccn4)C3)C2)nc1 (stereo unspecified)
Solution: -13.37

Exercise: Same for "CN1CSC[C@H]1C(=O)N1CCC(CCc2ccccc2)CC1"
Solution: -22.77

Exercise: Same for Cn1cccc1C(CNC(=O)COc1ccc(Cl)cc1Cl)N1CCCC1 (stereo unspecified)
Solution: -0.05475

Exercise: Same for O=C(Nc1nccs1)NC1CCOc2ccccc21 (stereo unspecified)
Solution: 5.946

Exercise: Same for O=C(O)C(F)(F)F.O=S(=O)(C1CC1)N1CCO[C@@H]2CC(COCc3cccnc3)C[C@H]21 (stereo partly specified)
Solution: 111.9

Exercise: Same for c1cnnc(NCC2CN(Cc3cccc4c3OCCO4)CCO2)c1 (stereo unspecified)
Solution: 4.711

Exercise: Same for "Cc1ccc(C(=O)N2CCO[C@H]3[C@H](OCc4ccccn4)CC[C@@H]32)o1.O=C(O)C(F)(F)F"
Solution: -0.009897

Exercise: Same for O=C(CN1CCS(=O)(=O)CC1)NC1CCCOc2ccccc21 (stereo unspecified)
Solution: 0.4653

Exercise: Same for "CN1CSC[C@H]1C(=O)N1CCC(Cc2ccccc2F)CC1"
Solution: -34.6

Exercise: Same for "CN(Cc1cc2n(n1)CCCN(C(=O)N1CCCC1)C2)Cc1nccs1"
Solution: 94.61

Exercise: Same for "O=C(NCc1ccccc1CN1CCC(O)CC1)Nc1ccccn1"
Solution: -0.8138

Exercise: Same for NC(=O)c1cccc(OCCC(=O)NC2CCc3c(F)cccc32)c1 (stereo unspecified)
Solution: 3.003

Exercise: Same for "O=C(Nc1ccccn1)C1CCN(Cc2cc3c(cc2O)OCO3)CC1"
Solution: 98.75

Exercise: Same for "Cc1ccoc1C(=O)NC1CCN(Cc2cccc3c2OCCO3)CC1"
Solution: 4.934

Exercise: Same for "CC(C)C(=O)NC1CCN(Cc2cccc3c2OCCO3)CC1"
Solution: 6.757

Exercise: Same for CC(NCc1nnc2n1CCCC2)c1nc(Cc2ccccc2)no1 (stereo unspecified)
Solution: 8.593

Exercise: Same for COc1ccc(C(=O)NCC(c2cccn2C)N2CCN(C)CC2)cc1 (stereo unspecified)
Solution: 104.9

Exercise: Same for "CCNC(=O)C1CCN(Cc2csc(-c3ccc(C)o3)n2)CC1"
Solution: 8.641

Exercise: Same for CCCS(=O)(=O)N1CCC2(CCCN(c3ncc(F)cn3)C2)C1 (stereo unspecified)
Solution: 14.12

Exercise: Same for CN1CCN(C(CNC(=O)CCn2cccn2)c2cccs2)CC1 (stereo unspecified)
Solution: 11.34

Exercise: Same for CC(C)S(=O)(=O)CCN1CCN(C(C#N)c2ccccc2)CC1 (stereo unspecified)
Solution: 88.63

Exercise: Same for CCS(=O)(=O)N1CCC2(CCCN(c3ncc(F)cn3)C2)C1 (stereo unspecified)
Solution: -3.984

Exercise: Same for "O=C(N1CCCC1)N1CCC(c2nccn2Cc2cscn2)CC1"
Solution: -4.277

Exercise: Same for Fc1cnc(N2CCCC3(CCN(c4ncccn4)C3)C2)nc1 (stereo unspecified)
Solution: 88.49
